Reference source: paper PMC6556873

Test: in vitro
Design: species or system CCD841, HEK293
Settings: human, hb2 cells, read-out: HB-2 Cells Viability (%)
Response field label: string, one of Fulfilled (viability at 48 h, 10 µM strictly below 80%) or Not fulfilled.

Solved entries (count: 10):
CCN(C(=O)CCl)c1ccc(F)cc1 ... Fulfilled
Cc1ccsc1CN(C)C(=O)CCl ... Fulfilled
CC(C)(C)OC(=O)N1CCCC(CNC(=O)CCl)C1 (centres unmarked) ... Not fulfilled
Cc1c(C#N)c(NC(=O)CCl)n(-c2ccc(F)cc2)c1C ... Fulfilled
O=C(CCl)Nc1cccc(-c2nnc3n2CCCCC3)c1 ... Fulfilled
C=CC(=O)N1CCC(c2nc3cccc(C)c3o2)CC1 ... Not fulfilled
Cc1cc(NC(=O)CCl)n(C(C)(C)C)n1 ... Fulfilled
O=C(CCl)NC1CCN(C(=O)C2CCCCC2)CC1 ... Not fulfilled
O=C(CCl)NC(=O)NCc1cccs1 ... Fulfilled
C=CC(=O)N1CCCc2c([nH]c3c(F)cccc23)C1 ... Not fulfilled

IN: Answer whether the compound O=C(CCl)Nc1nccs1 has viability at 48 h, 10 µM strictly less than 80%
OUT: Not fulfilled

IN: Answer whether the compound O=C(CCl)N1CCN(c2ccc(Cl)cc2[N+](=O)[O-])CC1 has viability at 48 h, 10 µM strictly less than 80%
OUT: Fulfilled

IN: Answer whether the compound C=CC(=O)Nc1cccc(Cl)c1 has viability at 48 h, 10 µM strictly less than 80%
OUT: Not fulfilled

IN: Answer whether the compound Cc1ccc(-n2nc(C)cc2NC(=O)CCl)cc1 has viability at 48 h, 10 µM strictly less than 80%
OUT: Fulfilled

IN: Answer whether the compound CS(=O)(=O)c1ccc(NC(=O)CCl)cc1 has viability at 48 h, 10 µM strictly less than 80%
OUT: Fulfilled

IN: Answer whether the compound C=CC(=O)Nc1cc(CC(C)(C)C)nn1C has viability at 48 h, 10 µM strictly less than 80%
OUT: Not fulfilled

IN: Answer whether the compound O=C(CCl)N1CCN(S(=O)(=O)c2ccc3ccccc3c2)CC1 has viability at 48 h, 10 µM strictly less than 80%
OUT: Fulfilled

IN: Answer whether the compound CC(NC(=O)CCl)c1ccc2c(c1)OCO2 (centres unmarked) has viability at 48 h, 10 µM strictly less than 80%
OUT: Not fulfilled

IN: Answer whether the compound O=C(NC1CCN(C(=O)CCl)CC1)c1ccccc1 has viability at 48 h, 10 µM strictly less than 80%
OUT: Fulfilled

IN: Answer whether the compound O=C(CCl)N1Cc2ccccc2C(c2ccccc2)C1 (centres unmarked) has viability at 48 h, 10 µM strictly less than 80%
OUT: Fulfilled

IN: Answer whether the compound O=C(CCl)N1CCc2ccc([N+](=O)[O-])cc21 has viability at 48 h, 10 µM strictly less than 80%
OUT: Fulfilled

###

Target: OTUB2 (OTUB2A) (Homo sapiens, UniProt Q96DC9)
Construct: full length residues 1-234, E. coli BL21(DE3)-R3, His tag removed by TEV, construct 27312 Da
Sequence (Q96DC9 1-234): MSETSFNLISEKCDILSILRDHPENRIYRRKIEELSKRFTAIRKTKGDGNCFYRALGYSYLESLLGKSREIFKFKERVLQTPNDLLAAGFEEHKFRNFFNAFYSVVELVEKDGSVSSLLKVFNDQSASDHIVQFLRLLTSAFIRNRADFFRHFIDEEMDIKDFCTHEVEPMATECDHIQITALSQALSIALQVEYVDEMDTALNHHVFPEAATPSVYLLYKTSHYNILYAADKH
Set-up: Intact protein LC/MS covalent labelling, fragments in pools of five, 200 uM each, 4 °C
Details: 24 h, 4 °C, pool of five; 200 µM; covalent
experimental.endpoint: OTUB2
Give your answer as a number; write no unit.

Use the examples below as a reference point.
C=CC(=O)N1CCCc2c([nH]c3c(F)cccc23)C1 [PCM-0102767] ... 0
Cc1ccc(-n2nc(C)cc2NC(=O)CCl)cc1 [PCM-0102224] ... 0.35
CC(=O)Nc1ccc(NC(=O)CCl)c(C(F)(F)F)c1 [PCM-0102895] ... 0
CC(C)c1cccc(NC(=O)CCl)c1 [PCM-0102429] ... 0.23

IN: What value of OTUB2 has been reported for the following compound? O=C(CCl)Nc1cccc(C(=O)O)c1 [PCM-0102696]
OUT: 0.11

IN: What value of OTUB2 has been reported for the following compound? CC(C)(C)OC(=O)N1CCN(C(=O)CCl)CC1 [PCM-0102786]
OUT: 0

IN: What value of OTUB2 has been reported for the following compound? Cn1nc(-c2ccc(Cl)cc2)cc1NC(=O)CCl [PCM-0102296]
OUT: 0.38

IN: What value of OTUB2 has been reported for the following compound? CC(=O)N1CCC(NC(=O)CCl)CC1 [PCM-0102932]
OUT: 0.07

IN: What value of OTUB2 has been reported for the following compound? CC(C)(C)C(=O)NNC(=O)CCl [PCM-0102855]
OUT: 0

IN: What value of OTUB2 has been reported for the following compound? C=CC(=O)N1CCC2(CC1)CCS(=O)(=O)CC2 [PCM-0102559]
OUT: 0

IN: What value of OTUB2 has been reported for the following compound? N#Cc1c(NC(=O)CCl)sc2c1CCCC2 [PCM-0102580]
OUT: 0.1

IN: What value of OTUB2 has been reported for the following compound? Cc1cccc(N2CCN(C(=O)CCl)CC2)c1.Cl [PCM-0102185]
OUT: 0

IN: What value of OTUB2 has been reported for the following compound? Cl.O=C(CCl)N1CCN(c2cccc(C(F)(F)F)c2)CC1 [PCM-0102239]
OUT: 0

IN: What value of OTUB2 has been reported for the following compound? CCc1nc(NC(=O)CCl)sc1C [PCM-0102231]
OUT: 0

IN: What value of OTUB2 has been reported for the following compound? COC(=O)C1CN(C(=O)CCl)c2ccccc2O1 (centres unmarked) [PCM-0102880]
OUT: 0.11

IN: What value of OTUB2 has been reported for the following compound? C=CC(=O)NC(=O)NC12CC3CC(CC(C3)C1)C2 [PCM-0102106]
OUT: 0

IN: What value of OTUB2 has been reported for the following compound? CC1CN(C(=O)CCl)CCO1 (centres unmarked) [PCM-0102830]
OUT: 0

###

Assay: in vitro
Set-up: species or system HB2, HEK293
Details: human, ccd841 cells
Below, each entry is listed alongside its reported viability at 48 h, 10 µM.
Please reply with the bare figure in % and do not write the unit itself.

Use the examples below as a reference point.
C=CC(=O)N1CCn2c(cc3c(Cl)cccc32)C1 [PCM-0102835] ... 91.6
C=CC(=O)NCc1cc2sccc2s1 [PCM-0102986] ... 111
O=C(CCl)Nc1cc(Cl)ccc1Cl [PCM-0102288] ... 70.8
C=CC(=O)Nc1cc(F)cc(F)c1 [PCM-0103039] ... 93.3
O=C1CN(C(=O)CCl)C2(CCCCC2)C(=O)N1 [PCM-0102139] ... 95.8
O=C(CCl)NCc1cccc(Cl)c1 [PCM-0102174] ... 79.9

IN: What value of viability at 48 h, 10 µM has been reported for the following molecule? C=CC(=O)NCc1cnn2ccccc12 [PCM-0102561]
OUT: 124

IN: What value of viability at 48 h, 10 µM has been reported for the following molecule? O=C(CCl)Nc1cccc(C(=O)N2CCSCC2)c1 [PCM-0103072]
OUT: 55.2

IN: What value of viability at 48 h, 10 µM has been reported for the following molecule? CC(C)(C)OC(=O)N1CCCC(CNC(=O)CCl)C1 (centres unmarked) [PCM-0102923]
OUT: 91

IN: What value of viability at 48 h, 10 µM has been reported for the following molecule? O=C(CCl)Nc1ccc(C(=O)O)cc1 [PCM-0102400]
OUT: 72.5

IN: What value of viability at 48 h, 10 µM has been reported for the following molecule? Cc1ccc(CNC(=O)CCl)cc1F [PCM-0102959]
OUT: 84

###

Assay: in vitro
Set-up: species or system HB2, HEK293
Details: human, ccd841 cells
Group membership follows viability at 48 h, 10 µM per the scheme label 0 = under 60%, label 1 = from 60% up to 90%, label 2 = 90% and over

Solved entries (count: 5):
Cc1ccc(S(=O)(=O)N2CCN(C(=O)CCl)CC2)cc1 [PCM-0102759] ... label 0
O=C(CCl)N1CCOC2CCCCC21 (centres unmarked) [PCM-0102940] ... label 2
Cl.O=C(CCl)N1CCN(Cc2ccsc2)CC1 [PCM-0102739] ... label 1
O=C(CCl)N1CCCC(c2nc3ccccc3s2)C1 (centres unmarked) [PCM-0102425] ... label 0
O=C(CCl)Nc1ccccc1N1CCCC1=O [PCM-0102375] ... label 1

IN: Class for CN(Cc1ccc(Cl)cc1)C(=O)CCl [PCM-0102344] ?
OUT: label 0

IN: Class for C=CC(=O)N1CCC(c2nccn2C)C1 (centres unmarked) [PCM-0102553] ?
OUT: label 2

IN: Class for O=C(CCl)Nc1nc(-c2cc(F)ccc2F)cs1 [PCM-0102496] ?
OUT: label 0

IN: Class for C=CC(=O)N1CCCC2(CCS(=O)(=O)C2)C1 (centres unmarked) [PCM-0102600] ?
OUT: label 2

IN: Class for O=C(CCl)Nc1ccc(F)cc1F [PCM-0103004] ?
OUT: label 1

IN: Class for O=C(CCl)N(C1CC1)C1CCCc2ccccc21 (centres unmarked) [PCM-0102774] ?
OUT: label 0

IN: Class for Cc1ccccc1CNC(=O)CCl [PCM-0102253] ?
OUT: label 1

IN: Class for Cl.O=C(CCl)N1CCN(Cc2cccs2)CC1 [PCM-0102243] ?
OUT: label 1

IN: Class for O=C(CCl)Nc1ccc(F)c([N+](=O)[O-])c1 [PCM-0102238] ?
OUT: label 0

IN: Class for C=CC(=O)N1CCC2(CC1)CCS(=O)(=O)CC2 [PCM-0102559] ?
OUT: label 2

IN: Class for O=C(CCl)N1CCOC(c2ccc(F)cc2)C1 (centres unmarked) [PCM-0102615] ?
OUT: label 0

IN: Class for CCc1cccc(C)c1NC(=O)CCl [PCM-0102618] ?
OUT: label 2

IN: Class for Cl.O=C(CCl)N1CCN(CC(=O)N2CCCC2)CC1 [PCM-0102346] ?
OUT: label 1
